test: Partition co-efficient, log P of the compound; type: physicochemical; conditions: octanol/water

>  <SMI>
O=C(CCCC[C@@H]1CCSS1)NCCc1ccc(O)c(O)c1

>  <logP>
3.4

$$$$
>  <SMI>
COC(=O)[C@H](Cc1ccc(OC(C)=O)c(OC(C)=O)c1)NC(=O)CCCC[C@@H]1CCSS1

>  <logP>
2.77

$$$$
>  <SMI>
CC(=O)Oc1ccc(CCNC(=O)CCCC[C@@H]2CCSS2)cc1OC(C)=O

>  <logP>
3.65

$$$$
>  <SMI>
COC(=O)[C@H](Cc1ccc(O)c(O)c1)NC(=O)CCCC[C@@H]1CCSS1

>  <logP>
2.16

$$$$

* * *

Listed molecules paired with reported solubility
assay: Solubility in water; format: physicochemical
MEASURED ENDPOINT: solubility (µg/mL)

>  <SMI>
CC(=O)Oc1ccc(CCNC(=O)CCCC[C@@H]2CCSS2)cc1OC(C)=O

>  <MEASURED ENDPOINT>
solubility

>  <UNIT>
µg/mL

>  <TEST VALUE>
49

$$$$
>  <SMI>
COC(=O)[C@H](Cc1ccc(OC(C)=O)c(OC(C)=O)c1)NC(=O)CCCC[C@@H]1CCSS1

>  <MEASURED ENDPOINT>
solubility

>  <UNIT>
µg/mL

>  <TEST VALUE>
233

$$$$
>  <SMI>
O=C(CCCC[C@@H]1CCSS1)NCCc1ccc(O)c(O)c1

>  <MEASURED ENDPOINT>
solubility

>  <UNIT>
µg/mL

>  <TEST VALUE>
0.36

$$$$
>  <SMI>
COC(=O)[C@H](Cc1ccc(O)c(O)c1)NC(=O)CCCC[C@@H]1CCSS1

>  <MEASURED ENDPOINT>
solubility

>  <UNIT>
µg/mL

>  <TEST VALUE>
12

$$$$

* * *

test: Aqueous solubility at pH 1.3; format: physicochemical; settings: buffer
MEASURED ENDPOINT: solubility (µg/mL)

>  <SMI>
O=C(CCCC[C@@H]1CCSS1)NCCc1ccc(O)c(O)c1

>  <TEST VALUE>
0.87

$$$$
>  <SMI>
COC(=O)[C@H](Cc1ccc(OC(C)=O)c(OC(C)=O)c1)NC(=O)CCCC[C@@H]1CCSS1

>  <TEST VALUE>
39

$$$$
>  <SMI>
CC(=O)Oc1ccc(CCNC(=O)CCCC[C@@H]2CCSS2)cc1OC(C)=O

>  <TEST VALUE>
0.47

$$$$

* * *

assay: Aqueous solubility at pH 7.4; assay type: physicochemical; settings: buffer
Listed molecules paired with reported solubility

>  <SMI>
COC(=O)[C@H](Cc1ccc(OC(C)=O)c(OC(C)=O)c1)NC(=O)CCCC[C@@H]1CCSS1

>  <solubility>
38 µg/mL

$$$$
>  <SMI>
COC(=O)[C@H](Cc1ccc(O)c(O)c1)NC(=O)CCCC[C@@H]1CCSS1

>  <solubility>
13 µg/mL

$$$$
>  <SMI>
CC(=O)Oc1ccc(CCNC(=O)CCCC[C@@H]2CCSS2)cc1OC(C)=O

>  <solubility>
52 µg/mL

$$$$
>  <SMI>
O=C(CCCC[C@@H]1CCSS1)NCCc1ccc(O)c(O)c1

>  <solubility>
1.1 µg/mL

$$$$

Hey, just so you know, these numbers are from ChEMBL document CHEMBL1138135.
